Ref: patent US20250368745A1

- TEST TARGET: T1, cynomolgus IL-18BP (cynomolgus monkey)
- T1 construct: also called cyno IL-18BP; cyIL-18BP
- T1 chain: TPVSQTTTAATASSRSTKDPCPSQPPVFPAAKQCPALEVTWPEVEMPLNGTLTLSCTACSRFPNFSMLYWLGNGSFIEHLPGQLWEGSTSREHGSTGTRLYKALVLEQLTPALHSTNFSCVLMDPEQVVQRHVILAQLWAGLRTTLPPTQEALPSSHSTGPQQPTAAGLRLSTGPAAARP
- PROCEDURE SUMMARY: BLI, apparent KD
binders and their reported Kd
MEASUREMENT LABEL: Kd (nM)

# BINDER, READING UNIT, DATA VALUE
measured = [
    ("SA301a HC-I99S (antibody, name in Kabat numbering, V domains shown, IgG1 kappa) VH: QVQLQESGPGLVKPSQTLSLTCTVSGYSITSDYNSHWIRQPPGKGLEWIGYIHYSGSTNYNPSLKSRVTISRDTSKNQFSLKLSSVTAADTAVYYCARNYGSSYVNYFDYWGQGTLVTVSS VL: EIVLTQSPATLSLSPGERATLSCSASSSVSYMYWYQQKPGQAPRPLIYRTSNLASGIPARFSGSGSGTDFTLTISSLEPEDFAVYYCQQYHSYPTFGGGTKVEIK", "nM", 0.53),
    ("SA301a HC-N100bM (antibody, name in Kabat numbering, V domains shown, IgG1 kappa) VH: QVQLQESGPGLVKPSQTLSLTCTVSGYSITSDYNSHWIRQPPGKGLEWIGYIHYSGSTNYNPSLKSRVTISRDTSKNQFSLKLSSVTAADTAVYYCARNYGSIYVMYFDYWGQGTLVTVSS VL: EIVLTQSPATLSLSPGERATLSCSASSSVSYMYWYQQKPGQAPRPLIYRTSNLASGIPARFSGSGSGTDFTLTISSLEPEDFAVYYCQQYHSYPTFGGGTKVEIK", "nM", 1.83),
]
